Values were extracted from the supplement of paper PMC10201428.

- Tested on: VchCAST RNA-guided transposition machinery (E. coli BL21(DE3) host, lacZ target)
- EXPERIMENT NOTES: relative integration efficiency (T-RL orientation) vs wild-type transposon end (log2 (normalized fold change)); transposon end mutated: right end (5 bp flank + 75 bp right end); higher = more efficient transposition

ENTRY SEQUENCE | relative integration efficiency (log2)
ACATTTGTTGATACACCCATAAATTGATAATTACAACCATAAGTTGATATTTTTCACAACCATAAGTTGATATTTTCTCTGATCATAGTCAGACCAACATTGCTACGACCCGTATTCGCACCGACAC | -0.543
ACATTTGTTGATCCAACCATAAAATGATAATTACACCCATAAATGGATCATTATCACACCCAATTTAACTATAACGCTCTGATCATAGTCAGACCAACATTGCTACGACCCGTATTCGCACCGACAC | -1.74
ACATTTGTTGATACAACCATAAAATGATACGGCCACCCATAAATTGATAATTATCACACCCATAAATTGATATTGCCTCTGATCATAGTCAGACCAACATTGCTACGACCCGTATTCGCACCGACAC | -0.778
ACATTTGTTGATACAACCATATATTGATATCTCCAACCATAAAATGATAATTATCACAACCATAAAGTGATATTTACTCTGATCATAGTCAGACCAACATTGCTACGACCCGTATTCGCACCGACAC | -0.115
ACATTTGTTGATACAACCATAAAATCATAATTACACCCATAAATTGATAATTATCCCACCCCATTTAACTATAACGCTCTGATCATAGTCAGACCAACATTGCTACGACCCGTATTCGCACCGACAC | -2.73
ACATTTGTTGATACAACCATAAAATGATAATTTCACCCATAAATTGATAATTTTCACACCCATAAATTGATATTGGCTCTGATCATAGTCAGACCAACATTGCTACGACCCGTATTCGCACCGACAC | -0.335
ACATTTGTTGATATGTTGATCAACCATAAAATGATAATTACACCCATAAATTGATAATTATCACACCCATAAATTGATATTGCCTCTGATCATAGTCAGACCAACATTGCTACGACCCGTATTCGCA | -7.04
ACATTTGTTGATACCCAAATAAAATGATAATTACACCCATAAATTGATAATTATCACACCCATAAATTGATATTGCCTCTGATCATAGTCAGACCAACATTGCTACGACCCGTATTCGCACCGACAC | -2.59
ACATTTGTTGATACAAACATAAAATGATAATTACACACATAAATTGATAATTATCACACACATAAATTGATATTGCCTCTGATCATAGTCAGACCAACATTGCTACGACCCGTATTCGCACCGACAC | -1.41
